All values here come from paper PMC9321663.

Test system: SOX17 (endoderm marker) in RUES2-GLR cells
METHOD DESCRIPTION: DevTox GLR-Endo assay: decrease in percent SOX17-positive cells (AEID 3094, Sox17_dn)
CONDITIONS: tcpl plot AEID3094, COFF 20.3
METRIC NAME: HIT−CALL

>>> readout_number("Nc1ccn([C@@H]2O[C@H](CO)[C@@H](O)[C@@H]2O)c(=O)n1")
1
>>> readout_number("Nc1cccc2c1C(=O)N(C1CCC(=O)NC1=O)C2=O (centres unmarked) [Pomalidomide]")
1
>>> readout_number("COC(=O)c1ccccc1C(=O)OC [Dimethyl Phthalate]")
0
>>> readout_number("O=c1[nH]cc(F)c(=O)[nH]1")
1
>>> readout_number("Cc1cn([C@H]2C=C[C@@H](CO)O2)c(=O)[nH]c1=O")
0
